# System: MALME-3M melanoma
# measurement protocol: NCI-60 one-dose screen, 48 h
# condition summary: 10 µM unless noted
The panel holds about 83,000 compounds, 20% with a hit somewhere; the sample as a whole holds those more often. Active and inactive are the calls of the source. The calls were made as follows: active = growth percent below 10; inactive = the rest.
Classes used: label 1 for active, label 0 for inactive

molecule | assayed system | label
COc1ccc(-c2n[nH]nc2-c2cc3ccccc3s2)cc1O | MALME-3M melanoma | label 0
CCc1nnc(NC(=O)c2ccoc2COc2ccccc2)s1 | MALME-3M melanoma | label 0
CC(C)c1cc(C(=O)O)c(O)c(C(C)C)c1.CC(C)c1cc(C(=O)O)c(O)c(C(C)C)c1.[Mn] | MALME-3M melanoma | label 0
CC1(n2nnnc2N2CCCN(c3ncccc3N)CC2)CCC1 | MALME-3M melanoma | label 0
CC1(C)CC[C@]2(CO)CC[C@]3(C)C(=CC[C@@H]4[C@@]5(C)CC[C@H](NCO)C(C)(C)[C@@H]5CC[C@]43C)[C@@H]2C1 | MALME-3M melanoma | label 1
CCCCN1CCCCn2c1nc1c2c(=O)n(C)c(=O)n1C | MALME-3M melanoma | label 0
COC(=O)[C@]12CC[C@@H](C)[C@H](C)[C@@H]1C1=CC[C@@H]3[C@@]4(C)C[C@@H](O)OC[C@](C)(C=O)C4C(=O)C[C@@]3(C)[C@]1(C)CC2 (stereo partly specified) | MALME-3M melanoma | label 1
CCCCCC1CCCCN1C(=O)OCC (stereo unspecified) | MALME-3M melanoma | label 0
Cc1cc(N2CCN(C)CC2)nc(N(CCNc2ccnc3cc(Cl)ccc23)Cc2ccco2)n1 | MALME-3M melanoma | label 1
CC(C)=CCC/C(C)=C/CC/C(C)=C/CC/C(C)=C/CSC[C@H](NC(=O)CCCCCN1CCN(C)CC1)C(=O)NC1CCCCC1 | MALME-3M melanoma | label 0
N#C/C(=C\c1ccc(-c2ccc(Br)cc2)o1)c1nc(-c2ccco2)cs1 | MALME-3M melanoma | label 0
CCN1CCN(c2nc(C)cc(N(CCCNc3ccnc4cc(Cl)ccc34)Cc3ccco3)n2)CC1 | MALME-3M melanoma | label 1
COc1cc(/C=N/Nc2ncnc3c2c(C)nn3-c2ccc(F)cc2)ccc1O | MALME-3M melanoma | label 0
COc1ccc2[nH]c(-c3ccc(Cl)cc3)cc(=O)c2c1 | MALME-3M melanoma | label 0
COc1cc(/C=C/c2cc(/C=C/c3ccc(O)c(OC)c3)n(-c3ccc(Cl)cc3)c(=O)n2)ccc1O | MALME-3M melanoma | label 0
CCOc1ccc(NC(=O)c2ccoc2COc2ccccc2)cc1 | MALME-3M melanoma | label 0
Cn1c(=O)c2c(nc(N3CCCC3)n2C)n(C)c1=O | MALME-3M melanoma | label 0
Cn1c(=O)c2c(nc(Br)n2CC(=O)Nc2ccc(F)cc2)n(C)c1=O | MALME-3M melanoma | label 0
O=C(N/N=C/c1ccccc1SSc1ccccc1/C=N/NC(=O)c1ccccc1)c1ccccc1 | MALME-3M melanoma | label 0
Cc1ccc(-c2ccc(Nc3ccccc3)nn2)cc1S(N)(=O)=O | MALME-3M melanoma | label 0
N#C/C(=C\c1ccc(-c2cccc(C(F)(F)F)c2)o1)c1nc(-c2ccco2)cs1 | MALME-3M melanoma | label 0
COc1cc(-c2cc(-c3nc4cc(Cl)c(Cl)cc4[nH]3)[nH]n2)cc(OC)c1OC | MALME-3M melanoma | label 0
C=C(C)[C@@H]1CC[C@]2(CN)CC[C@]3(C)[C@H](CC[C@@H]4[C@@]5(C)CCC(=O)NC(C)(C)[C@@H]5CC[C@]43C)[C@@H]12 | MALME-3M melanoma | label 1
c1ccc(-c2nc(Nc3ccc(-c4nc5ccccc5[nH]4)cc3)nc(N3CCOCC3)n2)cc1 | MALME-3M melanoma | label 1
CCN1CCN(C(=O)[C@@]2(C)CC[C@]3(C)CC[C@]4(C)C(=CC(=O)[C@@H]5[C@@]6(C)CC[C@H](OCCC#N)C(C)(C)[C@@H]6CC[C@]54C)[C@@H]3C2)CC1 | MALME-3M melanoma | label 0
COc1ccc2c(c1)c(-c1nc(-c3c[nH]c4ncccc34)cs1)cn2CCN | MALME-3M melanoma | label 0
O=S(=O)(NCCCNc1cc(-c2cn(-c3ccccc3)nc2-c2cccc(O)c2)ccn1)c1ccc(F)cc1 | MALME-3M melanoma | label 0
CC[C@]12C=CCN3CC[C@@]4(c5cc([C@H]6CCC(=O)N6)c(OC)cc5N(C)[C@H]4[C@@](O)(C(=O)OC)[C@@H]1OC(C)=O)[C@@H]32 | MALME-3M melanoma | label 0
CCCCC/C(=C\c1ccccc1)C1OC(C)C(C)O1 (stereo unspecified) | MALME-3M melanoma | label 0
Cc1ccc(Sc2sc(-c3ccccc3)nc2[P+](c2ccccc2)(c2ccccc2)c2ccccc2)cc1 | MALME-3M melanoma | label 1
COc1ccc(-c2nc3c(c(C)nn3-c3ccc(F)cc3)c(=O)[nH]2)cc1 | MALME-3M melanoma | label 0
N=C(N)c1ccc(S(N)(=O)=O)cc1 | MALME-3M melanoma | label 0
CC(=O)N1N=C(c2ccc(C)cc2)CC1c1ccc(Oc2ccc(Br)cc2)cc1 (stereo unspecified) | MALME-3M melanoma | label 0
N#CCCCCCn1c2ccccc2c2c3[nH]c(=O)[nH]c(=O)c3c3c4ccccc4n(CCCCCC#N)c3c21 | MALME-3M melanoma | label 0
CC1(C)C=CC[C@]2(C)[C@H]3CC[C@@H]4[C@H]5[C@H](C(=O)/C=C/c6cccnc6)CC[C@]5(CO)CC[C@@]4(C)[C@]3(C)CC[C@@H]12 | MALME-3M melanoma | label 1
CCSc1sc(-c2ccc(C)cc2)nc1[P+](c1ccccc1)(c1ccccc1)c1ccccc1 | MALME-3M melanoma | label 1
